assay: Primary screening of photostability of the CyNA library (time-course fluorescence, 8 h); format: physicochemical; set-up: unit: %; conditions: 10 μM in HEPES 100 mM pH 7.4, 2% DMSO
For each entry below, report its F/Fo, fluorescent intensity at 8 hours vs 0 hours value.
I'd appreciate a reply containing only the number, no unit.

Q: Give the value of F/Fo, fluorescent intensity at 8 hours vs 0 hours reported for the following: CCCN1/C(=C/C=C2\CCCC(/C=C/C3=[N+](CCC)c4ccccc4C3(C)C)=C2N(Cc2ccc(C)cc2)C(C)=O)C(C)(C)c2ccccc21
A: 96

Q: Give the value of F/Fo, fluorescent intensity at 8 hours vs 0 hours reported for the following: CCCN(C(C)=O)C1=C(/C=C/C2=[N+](CCC)c3ccccc3C2(C)C)CCC/C1=C\C=C1\N(CCC)c2ccccc2C1(C)C
A: 91

Q: Give the value of F/Fo, fluorescent intensity at 8 hours vs 0 hours reported for the following: CCCN1/C(=C/C=C2\CCCC(/C=C/C3=[N+](CCC)c4ccccc4C3(C)C)=C2N(CCc2ccc(O)cc2)C(C)=O)C(C)(C)c2ccccc21
A: 69

Q: Give the value of F/Fo, fluorescent intensity at 8 hours vs 0 hours reported for the following: CCCN1/C(=C/C=C2\CCCC(/C=C/C3=[N+](CCC)c4ccccc4C3(C)C)=C2N(Cc2c(OC)cc(OC)cc2OC)C(C)=O)C(C)(C)c2ccccc21
A: 85

Q: Give the value of F/Fo, fluorescent intensity at 8 hours vs 0 hours reported for the following: CCCN1/C(=C/C=C2\CCCC(/C=C/C3=[N+](CCC)c4ccccc4C3(C)C)=C2N(Cc2ccc(Cl)cc2Cl)C(C)=O)C(C)(C)c2ccccc21
A: 100

Q: Give the value of F/Fo, fluorescent intensity at 8 hours vs 0 hours reported for the following: CCCN1/C(=C/C=C2\CCCC(/C=C/C3=[N+](CCC)c4ccccc4C3(C)C)=C2N(C(C)=O)C2CCCC2)C(C)(C)c2ccccc21
A: 91

Q: Give the value of F/Fo, fluorescent intensity at 8 hours vs 0 hours reported for the following: CCCN1/C(=C/C=C2\CCCC(/C=C/C3=[N+](CCC)c4ccccc4C3(C)C)=C2N(CCCOC(C)C)C(C)=O)C(C)(C)c2ccccc21
A: 99

Q: Give the value of F/Fo, fluorescent intensity at 8 hours vs 0 hours reported for the following: CCCN1/C(=C/C=C2\CCCC(/C=C/C3=[N+](CCC)c4ccccc4C3(C)C)=C2N(Cc2ccccc2OCC)C(C)=O)C(C)(C)c2ccccc21
A: 92

Q: Give the value of F/Fo, fluorescent intensity at 8 hours vs 0 hours reported for the following: CCCN1/C(=C/C=C2\CCCC(/C=C/C3=[N+](CCC)c4ccccc4C3(C)C)=C2N(CCc2ccccc2Cl)C(C)=O)C(C)(C)c2ccccc21
A: 51

Q: Give the value of F/Fo, fluorescent intensity at 8 hours vs 0 hours reported for the following: CCCN1/C(=C/C=C2\CCCC(/C=C/C3=[N+](CCC)c4ccccc4C3(C)C)=C2N(CCCN(C)C)C(C)=O)C(C)(C)c2ccccc21
A: 100

Q: Give the value of F/Fo, fluorescent intensity at 8 hours vs 0 hours reported for the following: CCCN1/C(=C/C=C2\CCCC(/C=C/C3=[N+](CCC)c4ccccc4C3(C)C)=C2N(Cc2ccccn2)C(C)=O)C(C)(C)c2ccccc21
A: 91

Q: Give the value of F/Fo, fluorescent intensity at 8 hours vs 0 hours reported for the following: CCCN1/C(=C/C=C2\CCCC(/C=C/C3=[N+](CCC)c4ccccc4C3(C)C)=C2N(Cc2ccc3c(c2)OCO3)C(C)=O)C(C)(C)c2ccccc21
A: 95

Q: Give the value of F/Fo, fluorescent intensity at 8 hours vs 0 hours reported for the following: CCCCCCCCCCCCCN(C(C)=O)C1=C(/C=C/C2=[N+](CCC)c3ccccc3C2(C)C)CCC/C1=C\C=C1\N(CCC)c2ccccc2C1(C)C
A: 100

Q: Give the value of F/Fo, fluorescent intensity at 8 hours vs 0 hours reported for the following: CCCN1/C(=C/C=C2\CCCC(/C=C/C3=[N+](CCC)c4ccccc4C3(C)C)=C2N(CCC(C)(C)C)C(C)=O)C(C)(C)c2ccccc21
A: 64

Q: Give the value of F/Fo, fluorescent intensity at 8 hours vs 0 hours reported for the following: CCCN1/C(=C/C=C2\CCCC(/C=C/C3=[N+](CCC)c4ccccc4C3(C)C)=C2N(Cc2cccc(OC)c2)C(C)=O)C(C)(C)c2ccccc21
A: 75

Q: Give the value of F/Fo, fluorescent intensity at 8 hours vs 0 hours reported for the following: CCCCCN(C(C)=O)C1=C(/C=C/C2=[N+](CCC)c3ccccc3C2(C)C)CCC/C1=C\C=C1\N(CCC)c2ccccc2C1(C)C
A: 91

Q: Give the value of F/Fo, fluorescent intensity at 8 hours vs 0 hours reported for the following: CCCN1/C(=C/C=C2\CCCC(/C=C/C3=[N+](CCC)c4ccccc4C3(C)C)=C2N(Cc2ccccc2OC)C(C)=O)C(C)(C)c2ccccc21
A: 97

Q: Give the value of F/Fo, fluorescent intensity at 8 hours vs 0 hours reported for the following: CCCN1/C(=C/C=C2\CCCC(/C=C/C3=[N+](CCC)c4ccccc4C3(C)C)=C2N(C(C)=O)C(C)CCc2ccccc2)C(C)(C)c2ccccc21 (stereo not drawn)
A: 62

Q: Give the value of F/Fo, fluorescent intensity at 8 hours vs 0 hours reported for the following: CCCN1/C(=C/C=C2\CCCC(/C=C/C3=[N+](CCC)c4ccccc4C3(C)C)=C2N(C(C)=O)C2CCCCCCC2)C(C)(C)c2ccccc21
A: 65

Q: Give the value of F/Fo, fluorescent intensity at 8 hours vs 0 hours reported for the following: CCCN1/C(=C/C=C2\CCCC(/C=C/C3=[N+](CCC)c4ccccc4C3(C)C)=C2N(Cc2ccco2)C(C)=O)C(C)(C)c2ccccc21
A: 85

Q: Give the value of F/Fo, fluorescent intensity at 8 hours vs 0 hours reported for the following: CCCN1/C(=C/C=C2\CCCC(/C=C/C3=[N+](CCC)c4ccccc4C3(C)C)=C2N(Cc2ccc(Cl)cc2)C(C)=O)C(C)(C)c2ccccc21
A: 86

Q: Give the value of F/Fo, fluorescent intensity at 8 hours vs 0 hours reported for the following: CCCN1/C(=C/C=C2\CCCC(/C=C/C3=[N+](CCC)c4ccccc4C3(C)C)=C2N(CCc2ccc(CC)cc2)C(C)=O)C(C)(C)c2ccccc21
A: 33

Q: Give the value of F/Fo, fluorescent intensity at 8 hours vs 0 hours reported for the following: CCCN1/C(=C/C=C2\CCCC(/C=C/C3=[N+](CCC)c4ccccc4C3(C)C)=C2N(CCCOC)C(C)=O)C(C)(C)c2ccccc21.[I-]
A: 94

Q: Give the value of F/Fo, fluorescent intensity at 8 hours vs 0 hours reported for the following: CCCN1/C(=C/C=C2\CCCC(/C=C/C3=[N+](CCC)c4ccccc4C3(C)C)=C2N(CCCOCC)C(C)=O)C(C)(C)c2ccccc21
A: 92
